Measured Target: CCDC6-RET (Homo sapiens, UniProt P07949+Q16204+Q96SW2)
Construct: CCDC6 (natural N-terminal fusion partner, UniProt Q16204); endogenous in cells; host or cells: TPC-1 (parental, papillary thyroid carcinoma)
Sequence (Q16204+P07949 fused): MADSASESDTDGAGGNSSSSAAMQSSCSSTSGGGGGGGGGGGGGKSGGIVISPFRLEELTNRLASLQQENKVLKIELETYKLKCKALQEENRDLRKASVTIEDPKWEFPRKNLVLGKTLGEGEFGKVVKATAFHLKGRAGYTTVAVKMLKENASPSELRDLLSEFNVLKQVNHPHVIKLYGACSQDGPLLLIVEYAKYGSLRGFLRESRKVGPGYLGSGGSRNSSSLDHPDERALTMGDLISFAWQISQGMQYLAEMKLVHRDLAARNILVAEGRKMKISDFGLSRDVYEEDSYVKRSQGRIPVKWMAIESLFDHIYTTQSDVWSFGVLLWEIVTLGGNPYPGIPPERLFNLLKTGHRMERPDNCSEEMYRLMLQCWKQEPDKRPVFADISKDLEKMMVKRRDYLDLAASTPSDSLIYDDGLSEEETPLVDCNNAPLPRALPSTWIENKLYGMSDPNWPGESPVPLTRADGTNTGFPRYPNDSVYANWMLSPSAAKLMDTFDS
Sequence (Q96SW2 whole entry, the tested form may be a part): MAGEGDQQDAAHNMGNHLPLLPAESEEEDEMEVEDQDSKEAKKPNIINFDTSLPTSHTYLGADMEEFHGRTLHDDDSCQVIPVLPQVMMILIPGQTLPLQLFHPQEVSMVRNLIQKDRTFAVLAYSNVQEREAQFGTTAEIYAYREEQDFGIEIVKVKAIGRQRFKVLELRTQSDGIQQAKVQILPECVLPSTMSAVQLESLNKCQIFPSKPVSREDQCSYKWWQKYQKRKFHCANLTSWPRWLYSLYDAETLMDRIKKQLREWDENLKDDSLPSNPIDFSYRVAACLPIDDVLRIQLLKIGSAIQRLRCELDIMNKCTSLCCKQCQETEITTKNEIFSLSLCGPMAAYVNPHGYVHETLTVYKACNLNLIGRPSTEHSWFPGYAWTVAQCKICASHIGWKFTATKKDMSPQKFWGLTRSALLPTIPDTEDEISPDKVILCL
Sequence (Q16531 whole entry partner, the tested form may be a part): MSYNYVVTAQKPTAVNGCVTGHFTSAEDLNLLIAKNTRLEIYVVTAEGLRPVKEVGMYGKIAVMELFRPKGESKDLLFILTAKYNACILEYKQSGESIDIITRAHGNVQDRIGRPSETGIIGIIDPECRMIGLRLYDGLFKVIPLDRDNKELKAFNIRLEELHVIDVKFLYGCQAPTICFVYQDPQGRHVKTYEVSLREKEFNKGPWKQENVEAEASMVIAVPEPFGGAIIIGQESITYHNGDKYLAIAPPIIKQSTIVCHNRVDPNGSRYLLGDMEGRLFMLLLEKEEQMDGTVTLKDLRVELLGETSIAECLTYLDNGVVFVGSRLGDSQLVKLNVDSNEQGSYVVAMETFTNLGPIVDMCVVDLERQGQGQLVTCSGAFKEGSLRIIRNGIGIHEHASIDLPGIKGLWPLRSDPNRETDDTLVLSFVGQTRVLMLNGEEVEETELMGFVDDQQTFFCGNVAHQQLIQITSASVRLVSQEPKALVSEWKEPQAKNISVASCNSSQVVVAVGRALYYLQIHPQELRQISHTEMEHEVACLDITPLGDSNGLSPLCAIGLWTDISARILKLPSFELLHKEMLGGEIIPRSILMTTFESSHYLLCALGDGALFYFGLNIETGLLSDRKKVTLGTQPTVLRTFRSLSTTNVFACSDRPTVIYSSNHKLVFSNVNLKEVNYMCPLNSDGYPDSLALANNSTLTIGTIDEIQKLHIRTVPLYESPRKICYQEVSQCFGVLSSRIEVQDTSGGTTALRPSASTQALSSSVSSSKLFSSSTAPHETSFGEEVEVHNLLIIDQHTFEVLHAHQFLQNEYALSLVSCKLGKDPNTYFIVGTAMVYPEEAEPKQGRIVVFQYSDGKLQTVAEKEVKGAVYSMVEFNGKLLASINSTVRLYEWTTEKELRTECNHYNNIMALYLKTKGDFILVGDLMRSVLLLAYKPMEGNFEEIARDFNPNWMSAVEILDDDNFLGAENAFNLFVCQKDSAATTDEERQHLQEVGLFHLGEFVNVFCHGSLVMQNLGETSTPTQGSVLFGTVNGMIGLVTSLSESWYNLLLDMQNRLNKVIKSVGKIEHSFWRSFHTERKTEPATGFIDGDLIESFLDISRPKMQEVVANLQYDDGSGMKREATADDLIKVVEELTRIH
Measurement Notes: Cellular RET degradation, AlphaLISA, TPC-1 cell line
Type: cell-based
Condition Set: read-out: Cell Density TPC-1/CCDC6-RET DC50; half-maximal degradation concentration; TPC-1 (CCDC6-RET), 24 hrs
Quantity Name: DC50

I'm curious: which DC50 was measured for CCOc1cc(-c2ccc(N3CCC(CN4CCN(C(=O)C5CC6(C5)CC(C(=O)N5CCN(c7ccc8c(c7)C(=O)N(C7CCC(=O)NC7=O)C8)CC5)C6)CC4)(NC(=O)c4cc(F)ccc4F)CC3)nc2)c2c(C#N)cnn2c1 (centres unmarked) tested on CCDC6-RET (Homo sapiens, UniProt P07949+Q16204+Q96SW2)?
< 2 nM

Request body: readout DC50, system CCDC6-RET (Homo sapiens, UniProt P07949+Q16204+Q96SW2), query CCOc1cc(-c2ccc(N3CCC(NC(=O)c4cc(F)ccc4F)(C(=O)NCCCCN4CCN(c5ccc6c(c5)CN(C5CCC(=O)NC5=O)C6=O)CC4)CC3)nc2)c2c(C#N)cnn2c1 (centres unmarked) . Return the value.
10 to 100 nM

Param readout= DC50; system= CCDC6-RET (Homo sapiens, UniProt P07949+Q16204+Q96SW2); entry= CCOc1cc(-c2ccc(N3CCC(COCCN4CCN(C(=O)CCN5CCN(c6ccc7c(c6)C(=O)N(C6CCC(=O)NC6=O)C7)CC5)CC4)(NC(=O)c4cc(F)ccc4F)CC3)nc2)c2c(C#N)cnn2c1 (centres unmarked) ; returns value.
2 to 10 nM

Give CCDC6-RET (Homo sapiens, UniProt P07949+Q16204+Q96SW2) DC50 for CCOc1cc(-c2ccc(N3CCC(CN(C(=O)CCCCN4CCN(c5ccc6c(c5)C(=O)N(C5CCC(=O)NC5=O)C6)CC4)C(C)C)(NC(=O)c4cc(F)ccc4F)CC3)nc2)c2c(C#N)cnn2c1 (centres unmarked)
2 to 10 nM

Could you share what DC50 was measured for CCOc1cc(-c2ccc(N3CCC(CN4CCN(C(=O)CCCCCCN5CCN(c6ccc7c(c6)C(=O)N(C6CCC(=O)NC6=O)C7)CC5)CC4)(NC(=O)c4cc(F)ccc4F)CC3)nc2)c2c(C#N)cnn2c1 (centres unmarked) , tested on CCDC6-RET (Homo sapiens, UniProt P07949+Q16204+Q96SW2)?
2 to 10 nM
